PROCEDURE DETAILS: AGP1-GFP expression modulators, hit retest, confirmation, cell-based, flow cytometry, S. cerevisiae, cherry picks (AID 2273);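 also: median GFP channel fluorescence over the whole cell population gate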
MEASUREMENT SETUP: S. cerevisiae AGP1-GFP strain, 3 h, at 10 µM
The following molecules are shown together with reported GFP response, % of DMSO values.
ASSAY METRIC: GFP response, % of DMSO (%)

1. O=c1[nH]c(CCl)nc2cc(-c3ccc(Cl)cc3)sc12 : 96.5
2. COc1ccc(Br)cc1/C=C/C(=O)c1ccc(NC(C)=O)cc1 : 98.6
3. O=C(OCC(=O)N1CCN(C(=O)c2ccco2)CC1)c1cc(-c2ccc(F)cc2)nc2ccccc12 : 138
4. O=C(NNC(=S)NC(=O)c1ccco1)c1ccc(F)cc1 : 104
5. Nc1ccc(S(=O)(=O)c2ccccc2)nc1 : 95.7
6. Clc1ccc(-n2cccc2)cn1 : 96.3

* * *

PROCEDURE DETAILS: inhibitors of fungal efflux pumps CDR1, CDR2, MDR1, pilot screen, validation compound set, multiplex, phenotypic (AID 588506);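 also: Nile Red retained in cells so higher fluorescence means more efflux inhibition; 0 = negative control wells and 1 = enniatin B 25 µM full block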
MEASUREMENT SETUP: S. cerevisiae pump-expressing triplex, Nile Red efflux flow cytometry; at 10 µM; stronger effect = higher value; the pumps come from Candida albicans
Checkbox rule: efflux inhibition (fraction of control) lower than 0.2 = true (1); efflux inhibition (fraction of control) not lower than 0.2 = false (0).

1) O=C(/C=C/c1ccccc1)/C=C/c1ccccc1 : true (1)
2) COc1cc(/C=C(\C#N)C(=O)N2CCc3ccccc32)ccc1O : true (1)
3) C[C@@H]1C[C@H]2[C@@H]3C[C@H](F)C4=CC(=O)C=C[C@]4(C)[C@@]3(F)[C@@H](O)C[C@]2(C)[C@@]1(O)C(=O)CO : true (1)
4) CCOC(=O)c1cnc2ccc(C(=O)OC)cc2c1Nc1ccc2c(c1)OCCO2 : true (1)
5) CN=C1c2cc3cc(OC)ccc3n2CCN1C : true (1)
6) CCSc1nc(O)c(C2OC(=O)c3c2ccc(OC)c3OC)c(=O)n1CC (stereo unspecified) : true (1)
7) C=CCN1C(=O)c2oc3ccccc3c(=O)c2C1c1ccc(O)c(OC)c1 (stereo unspecified) : false (0)
8) CC(NCCC(c1ccccc1)c1ccccc1)c1ccccc1 (stereo unspecified) : true (1)
9) CCc1ccc(/C=C2\SC(=S)N(CCC(=O)N3CCN(C)CC3)C2=O)cc1 : false (0)
10) CN1CCN(C2=Nc3cc(Cl)ccc3Nc3ccccc32)CC1 : true (1)
11) OCCN(CCO)c1ccc2ccccc2c1 : true (1)

* * *

PROCEDURE DETAILS: LAP4-GFP expression modulators in yeast, confirmation, cell-based, cherry picks, flow cytometry, mother/daughter gates (AID 2271);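 also: ratio of sample to DMSO plate mean so 100% equals DMSO level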
MEASUREMENT SETUP: S. cerevisiae LAP4-GFP strain, 3 h, at 10 µM, 100 means same as DMSO control
Active and inactive are the calls of the source.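 How the source made its calls: active means GFP response above 150% of the DMSO control; inconclusive means fewer than 70 events counted in any yeast strain; inactive means the rest.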
Outcome codes: y = active, n = inactive

1. COc1ccc(N2C(=O)C(Cl)=C(Nc3c(C)n(C)n(-c4ccccc4)c3=O)C2=O)cc1 : n
2. N#C/C(=C\c1ccc(N2CCOCC2)o1)c1ccccc1 : n
3. COc1ccc(NC(=O)/C(C#N)=C/c2ncc([N+](=O)[O-])n2C)c(OC)c1 : y
4. CCOCCCNC(=O)/C(C#N)=C/c1ccc([N+](=O)[O-])o1 : y
5. CCC(C)(C)n1nnnc1C(c1ccc(O)c(OC)c1)N1CCc2ccccc2C1 (configuration not stated) : n
6. O=C(NCc1ccc2c(c1)OCO2)c1nc(S(=O)(=O)Cc2ccccc2F)ncc1Cl : n
7. COc1ccccc1N1CCN(C(=O)c2ccccc2Oc2ccccc2)CC1 : n
8. COc1ccc(S(=O)(=O)NCC(=O)N(CC(=O)NCc2ccco2)Cc2ccc(F)cc2)cc1 : n
9. CCCc1nn(-c2ccccc2)c2c1C(c1cccs1)C(C#N)=C(N)O2 (configuration not stated) : n
10. CC(=O)c1ccc(NC(=O)CN2CCC(NC(=O)C3CCCCC3)CC2)cc1 : n
11. Cc1ccccc1CN1CCSc2sccc2C1=O : n
12. COc1cccc(C(=O)C(C#N)=C(SC)SC)c1 : n
13. Cc1sc(NC(=O)c2ccco2)nc1-c1ccccc1 : n
14. O=C(Cc1ccc(-c2ccccc2)cc1)OCC(=O)N1CCCC1=O : n
15. N#CC(C(=O)NCc1ccccc1)c1nc2ccccc2nc1N1CCCC1 (configuration not stated) : n
16. Cc1c(NC2=C(Cl)C(=O)N(c3ccccc3Cl)C2=O)c(=O)n(-c2ccccc2)n1C : n
17. CCOC(=O)c1ccc(NC(=O)c2ccc3c(c2)C(=O)N(Cc2cccnc2)C3=O)cc1 : n
18. Cn1c(N2CCCC2)nc2c1c(=O)n(Cc1ccc(Cl)cc1)c(=O)n2C : n
19. CCOC(=O)C1=C(C)N=C2SC(C(=O)OC)=CC(=O)N2C1c1ccc(F)cc1 (configuration not stated) : n
20. CC(C)(C)C(=O)NC(=S)NNC(=O)c1ccc(-c2ccccc2)cc1 : y
21. C/C(=N\Nc1ncnc2sc(C)c(C)c12)c1ccccn1 : y
22. O=C(Oc1c(Cl)cc(Cl)c2cccnc12)c1cccc([N+](=O)[O-])c1 : y

* * *

PROCEDURE DETAILS: modulators of CIT2-GFP expression in yeast, confirmation, S. cerevisiae, GFP fusion, cherry picks, mother/daughter gates (AID 2274)
MEASUREMENT SETUP: S. cerevisiae CIT2-GFP strain, flow cytometry, 3 h; measured here: daughter cell gate; at 10 µM; stronger effect = higher value
ASSAY METRIC: GFP response, % of DMSO

1. O=C(COc1ccc(F)cc1Cl)Nc1nc(-c2ccccn2)cs1 : 97.6%
2. COc1ccc(/C=N/Nc2nc(-c3cccnc3)nc3ccccc23)cc1OC : 143%
3. Clc1cnc(N/N=C/c2cccs2)c(Cl)c1 : 110%
4. CC(=O)c1ccc(N2CCN(S(=O)(=O)c3ccc4c(c3)CC(C)N4C(C)=O)CC2)cc1 (stereo unspecified) : 99.3%
5. COc1ccc(C(=O)Oc2ccc(/C=N/NC(=O)c3ccccc3OC)cc2[N+](=O)[O-])cc1 : 104%
6. COC(=O)c1cc(N2C(=O)C3C(C2=O)C2(C)C=CC3(C)O2)ccc1Cl (stereo unspecified) : 109%
7. CCOc1ccc(N2C(=O)CC(Sc3nccc(C)n3)C2=O)cc1 (stereo unspecified) : 97.6%
8. O=c1[nH]c(CCl)nc2cc(-c3ccc(Cl)cc3)sc12 : 92%
9. COCc1nnc(NC(=O)c2ccc(S(=O)(=O)N3CCCCCC3)cc2)o1 : 97.4%
10. Cc1cccc(N=c2oc3cc(O)ccc3cc2C(N)=O)c1 : 90.5%
11. CCOC(=O)c1ccc(NC(=O)CCc2nc(-c3ccccc3Cl)no2)cc1 : 102%

* * *

The following compounds are shown together with reported GFP response relative to DMSO values.
PROCEDURE DETAILS: LAP4-GFP expression modulators in yeast, confirmation, cell-based, cherry picks, flow cytometry, mother/daughter gates (AID 2271);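 also: ratio of sample to DMSO plate mean so 100% equals DMSO level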
MEASUREMENT SETUP: S. cerevisiae LAP4-GFP strain, 3 h, measured here: mother cell gate response, at 10 µM, stronger effect = higher value, 100 means same as DMSO control
ASSAY METRIC: GFP response relative to DMSO (%)

1. CC1(C)CCN2CCC(C)(C)c3c(O)ccc1c32 : 115
2. Nc1ccccc1SC(C[N+](=O)[O-])c1ccccc1 (stereo unspecified) : 169
3. O=S(=O)(c1ccccc1)N1N=C(c2cccs2)CC1c1ccc(F)cc1 (stereo unspecified) : 101
4. O=c1[nH]c(=O)n([C@H]2C[C@H](O)[C@@H](CO)O2)cc1F : 97.2
5. O=C(Nc1cc(Sc2ccccn2)cc([N+](=O)[O-])c1)c1cccc(F)c1 : 102
6. COc1ccc(/C=C/C(=O)C2C(=O)C=C(C)OC2=O)cc1O (stereo unspecified) : 125
7. CCOC(=O)c1sc(NC(=O)CN2C(=O)c3cccc4cccc(c34)C2=O)nc1C : 87.6
8. CS(=O)(=O)Nc1ccc(C2=NN(S(C)(=O)=O)C(c3ccc4c(c3)OCO4)C2)cc1 (stereo unspecified) : 99.3
9. Cc1ccc(/C=C/C(=O)N2CC(C)CC(C)C2)o1 (stereo unspecified) : 113
10. CC(=O)Oc1oc(-c2ccccc2)nc1C=Nc1ccccc1 : 130
11. COc1cc(NC(=O)c2ccccc2F)ccc1NC(=O)c1cc2ccccc2o1 : 97.3
12. CN1CCN(CCCCOc2ccccc2C=O)CC1 : 99.3
13. COc1ccccc1CN1C(=O)c2cccc3cccc(c23)C1=O : 91.6
14. CC1=C/C(=N\OS(=O)(=O)c2ccccc2)C(C)=CC1=O : 243
15. Cc1nn(C)c(C)c1N1C(=O)c2cccc3c(Br)ccc(c23)C1=O : 134
16. Cc1ccc(NC(=O)c2ccccc2)cc1 : 100
17. O=[N+]([O-])c1cc(S(=O)(=O)C(F)(F)F)ccc1Sc1nc2ccccc2s1 : 192
18. O=C(c1cccc2ccccc12)N1CCN(c2ccccc2F)CC1 : 102
19. O=c1[nH]c(CN2CCCCC2)nc2c1C1(CCCCC1)Cc1ccccc1-2 : 101
20. CCn1c(=O)c(C(=O)NCCc2ccccc2)c(O)c2ccccc21 : 97.4
21. COc1cccc(N=Nc2ccc(O)c3ncccc23)c1 : 228
22. COc1cccc(NC(=O)Nc2ccc3c(c2)nnn3C)c1 : 104
23. CCOc1cc(/C=C2/N=C(c3ccc4c(c3)OCO4)OC2=O)ccc1OC(C)=O : 96.2
24. COc1cccc(-c2nnc(NC(=O)c3ccc(S(=O)(=O)N4CCOCC4)cc3)o2)c1 : 97.4
25. O=S(=O)(c1ccccc1)c1ccc(C(F)(F)F)cn1 : 95.1
26. COc1ccc(C(=O)/C(=C/O)N=Nc2ccc(F)cc2)cc1 : 109
27. Cc1ccccc1Oc1ncnc2oc(-c3ccccc3)cc12 : 97.2
28. CSC(SC)=C(C#N)C(=O)c1ccccc1 : 129
29. CC(C)c1ccc(C(=O)N/N=C/c2cccc(Cl)c2Cl)cc1 : 116
30. Cc1ccccc1C(=O)Nc1ccccc1 : 97.2
31. Cc1nn2c(NCCCN3CCOCC3)c3c(nc2c1-c1ccccc1)CCC3 : 98.4
32. COc1ccc(NC2=C(Cl)C(=O)N(CCc3ccccc3)C2=O)cc1 : 96.5
33. Cc1ccc(N2C(=O)C3C4C=CC(CNC(=S)Nc5ccc(Cl)cc5)(O4)C3C2=O)cc1 (stereo unspecified) : 102
34. O=C(NCc1ccccn1)c1cc(-c2ccc(Cl)cc2)oc1C(F)(F)F : 102
35. CCCN1CCN(C(=O)c2oc3ccccc3c2NC(=O)COc2ccc(OC)cc2)CC1 : 95.1
36. CCN=C(NCC)SC1CC(=O)N(c2cccc(OCC)c2)C1=O (stereo unspecified) : 98.3
37. O=S(=O)(c1ccc(Oc2ccccc2)cc1)N1CCOCC1 : 97.2
38. Cn1c(=O)c(C(=O)Nc2ncccc2O)c(O)c2ccccc21 : 90.3
39. Cc1onc(-c2ccccc2)c1C(=O)NC(=S)NNC(=O)c1ccco1 : 103
40. O=[N+]([O-])c1ccc(N=Nc2c(Cl)cc(O)cc2Cl)cc1 : 230
41. Cn1cc(/C=C/c2cc[n+](C)cc2)c2cc(F)ccc21 : 116
42. O=S(=O)(/N=C(/Sc1ccccc1)c1ccccc1)c1ccccc1 : 180
43. N/C(=N\OC(=O)c1cccc(Br)c1)c1ccccc1 : 143
44. CCOC(=O)CNc1c(-c2ccccc2)nc2ccc(Cl)cn12 : 114
45. O=c1oc(/C=C/c2ccc([N+](=O)[O-])s2)nc2ccccc12 : 189
46. Cc1ccc(-c2nc(NC(=O)c3nn(C)cc3[N+](=O)[O-])sc2C)cc1 : 101
